Test system: LXRb:RXRa (NR concentration 270 nM, RXRa partner concentration 90 nM)
Assay: PBM binding z-score (relative to random genomic background probes); higher = stronger binding; sequences stand for … in GC…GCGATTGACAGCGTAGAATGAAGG
# cutoff 1 applies to PBM binding z-score; >= gives satisfied, < gives not satisfied

SEQUENCE_INPUT: CGTCCAAGGTCAGAGAGGTCAGTGATTGCCGAGT
TESTED_TARGET: LXRb:RXRa (NR concentration 270 nM, RXRa partner concentration 90 nM)
CATEGORY_LABEL: satisfied
//
SEQUENCE_INPUT: TCATATGGGTAAAGGTGAAAGTCGAACGATATGA
TESTED_TARGET: LXRb:RXRa (NR concentration 270 nM, RXRa partner concentration 90 nM)
CATEGORY_LABEL: satisfied
//
SEQUENCE_INPUT: TCGAGTAGGTTAGTCGGTGCATTCAGCCAACATA
TESTED_TARGET: LXRb:RXRa (NR concentration 270 nM, RXRa partner concentration 90 nM)
CATEGORY_LABEL: not satisfied
//
SEQUENCE_INPUT: CCTAGTTGGCCAGGAGGTCACACACCGGATATGA
TESTED_TARGET: LXRb:RXRa (NR concentration 270 nM, RXRa partner concentration 90 nM)
CATEGORY_LABEL: satisfied
//
SEQUENCE_INPUT: ATCTCTAGGTAACCAATTTCAGTGAATGCCGAAC
TESTED_TARGET: LXRb:RXRa (NR concentration 270 nM, RXRa partner concentration 90 nM)
CATEGORY_LABEL: not satisfied
//
SEQUENCE_INPUT: ATCTCTAGGTAACCAAGTTCTGTGAATGCCGAAC
TESTED_TARGET: LXRb:RXRa (NR concentration 270 nM, RXRa partner concentration 90 nM)
CATEGORY_LABEL: not satisfied
//
SEQUENCE_INPUT: TCGAGTAGGTTACCAATGGCGCATTCAGCTTTCT
TESTED_TARGET: LXRb:RXRa (NR concentration 270 nM, RXRa partner concentration 90 nM)
CATEGORY_LABEL: not satisfied
//
SEQUENCE_INPUT: GATACAGGGTCTAGGCCAGAGTACGCGTATTGAT
TESTED_TARGET: LXRb:RXRa (NR concentration 270 nM, RXRa partner concentration 90 nM)
CATEGORY_LABEL: not satisfied
//
SEQUENCE_INPUT: ATCTCTAGGTAAAGATAGTTCATTGAATGCAAAT
TESTED_TARGET: LXRb:RXRa (NR concentration 270 nM, RXRa partner concentration 90 nM)
CATEGORY_LABEL: satisfied
//
SEQUENCE_INPUT: CAGACTAGGTCAGGGCCAGTATAGGAGGAACGTT
TESTED_TARGET: LXRb:RXRa (NR concentration 270 nM, RXRa partner concentration 90 nM)
CATEGORY_LABEL: not satisfied
//
SEQUENCE_INPUT: CCTAGCATGCCAGGGTCACTCAAGCATTTCGCTT
TESTED_TARGET: LXRb:RXRa (NR concentration 270 nM, RXRa partner concentration 90 nM)
CATEGORY_LABEL: satisfied
//
SEQUENCE_INPUT: ACTAGCAGGCCAAGGGACACTCAAGATTAGTCCG
TESTED_TARGET: LXRb:RXRa (NR concentration 270 nM, RXRa partner concentration 90 nM)
CATEGORY_LABEL: not satisfied
//
SEQUENCE_INPUT: TCATATAGGTAAGAGGTGAAAGTCGGTGTGGTAA
TESTED_TARGET: LXRb:RXRa (NR concentration 270 nM, RXRa partner concentration 90 nM)
CATEGORY_LABEL: satisfied
//
SEQUENCE_INPUT: TCTTGGAGATCAATAGAGGTTAAGAAAGTGCGCT
TESTED_TARGET: LXRb:RXRa (NR concentration 270 nM, RXRa partner concentration 90 nM)
CATEGORY_LABEL: satisfied
//
SEQUENCE_INPUT: TCTTGTAGATCAACAGGAGCTTAAGAAAGATCGA
TESTED_TARGET: LXRb:RXRa (NR concentration 270 nM, RXRa partner concentration 90 nM)
CATEGORY_LABEL: not satisfied
//
SEQUENCE_INPUT: TCTAGTTGGTCAAATGTCACACACTCGAAATGCG
TESTED_TARGET: LXRb:RXRa (NR concentration 270 nM, RXRa partner concentration 90 nM)
CATEGORY_LABEL: satisfied
//
SEQUENCE_INPUT: CTCGAAAGGTAGGTTGAGGTGAGTATACGGATAA
TESTED_TARGET: LXRb:RXRa (NR concentration 270 nM, RXRa partner concentration 90 nM)
CATEGORY_LABEL: not satisfied
//
SEQUENCE_INPUT: GCTGGTTGGTCAGTAAAAGGTCACACACCGGTCG
TESTED_TARGET: LXRb:RXRa (NR concentration 270 nM, RXRa partner concentration 90 nM)
CATEGORY_LABEL: satisfied
//
SEQUENCE_INPUT: AGAACGAGGGCAATGAGTTGGTAGCACGGGTGGC
TESTED_TARGET: LXRb:RXRa (NR concentration 270 nM, RXRa partner concentration 90 nM)
CATEGORY_LABEL: not satisfied
//
SEQUENCE_INPUT: CCTAGCAGCCCAATCTGGGTCACTCAAGGCTTGA
TESTED_TARGET: LXRb:RXRa (NR concentration 270 nM, RXRa partner concentration 90 nM)
CATEGORY_LABEL: not satisfied
//
SEQUENCE_INPUT: ATCGTAAGGTCGACGAGGTGAGTATACACCGTTT
TESTED_TARGET: LXRb:RXRa (NR concentration 270 nM, RXRa partner concentration 90 nM)
CATEGORY_LABEL: satisfied
//
SEQUENCE_INPUT: ATCTCTAGGTAACAAGTTCCGTGAAAGAGAGGAC
TESTED_TARGET: LXRb:RXRa (NR concentration 270 nM, RXRa partner concentration 90 nM)
CATEGORY_LABEL: not satisfied
//
SEQUENCE_INPUT: CCAGACTGGTGAAAGGTAACTCAGTCTGGTACGC
TESTED_TARGET: LXRb:RXRa (NR concentration 270 nM, RXRa partner concentration 90 nM)
CATEGORY_LABEL: not satisfied
//
SEQUENCE_INPUT: ATCTCTAGGTAACAAGTTCAATGAAAGAGAGGAC
TESTED_TARGET: LXRb:RXRa (NR concentration 270 nM, RXRa partner concentration 90 nM)
CATEGORY_LABEL: satisfied
//
SEQUENCE_INPUT: ACTATCAGTTGACTTAGGGCAACCGATACGACGC
TESTED_TARGET: LXRb:RXRa (NR concentration 270 nM, RXRa partner concentration 90 nM)
CATEGORY_LABEL: not satisfied
//
SEQUENCE_INPUT: GGAACGAGGGCAAAGTTGATTGCATCTGTCGACG
TESTED_TARGET: LXRb:RXRa (NR concentration 270 nM, RXRa partner concentration 90 nM)
CATEGORY_LABEL: not satisfied
//
SEQUENCE_INPUT: CCTACTGGGCCAAGATCATTGATCAGTCAAAGCA
TESTED_TARGET: LXRb:RXRa (NR concentration 270 nM, RXRa partner concentration 90 nM)
CATEGORY_LABEL: not satisfied
//
SEQUENCE_INPUT: TAGCCTAGGTAATGGGCCAGTATACCACGCGAAC
TESTED_TARGET: LXRb:RXRa (NR concentration 270 nM, RXRa partner concentration 90 nM)
CATEGORY_LABEL: not satisfied
//
SEQUENCE_INPUT: TAGCCTAGGTCATTCAGAGGCCAGTATAGAAAGC
TESTED_TARGET: LXRb:RXRa (NR concentration 270 nM, RXRa partner concentration 90 nM)
CATEGORY_LABEL: satisfied

---

Tested on: LXRa homodimer (NR concentration 270 nM)
Assay: PBM binding z-score (relative to random genomic background probes); higher = stronger binding; sequences stand for … in GC…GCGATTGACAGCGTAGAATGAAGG
# cutoff 0.2 applies to PBM binding z-score; >= gives y, < gives n

SEQUENCE_INPUT: CGTCCAAGGTCAAGATCAGTGAAAGAGACTCGAA
CATEGORY_LABEL: y

SEQUENCE_INPUT: CAAAGTAGGTCAAAGGTCAAAGTCGAGCCAACCA
CATEGORY_LABEL: y

SEQUENCE_INPUT: TCGAGTAGATTAGGGGCATTCAGAATGGCGTCGA
CATEGORY_LABEL: n

SEQUENCE_INPUT: CCTGCTAGGTCAATGGTCAGCCAAAGCAGCTCGC
CATEGORY_LABEL: n

SEQUENCE_INPUT: CCTGCTAGGTGATGGTCAGCTAATCTACAGTATG
CATEGORY_LABEL: n

SEQUENCE_INPUT: TCGAGTAGGTTACCAATGCGGCATTCAGCTTTCT
CATEGORY_LABEL: n

SEQUENCE_INPUT: TCTATTAGTTGATTCGGGCAACCGAAACAGCGGA
CATEGORY_LABEL: y

SEQUENCE_INPUT: GCATCTAGGTAATACAAGGTGAAAGTCCGATTGT
CATEGORY_LABEL: y

SEQUENCE_INPUT: ATCTCAAGGTAAAGATAGTTCAGTGAATGCAAAT
CATEGORY_LABEL: y

SEQUENCE_INPUT: CCTTACGGGTCACGAGGTTACAGCACGACGAGCG
CATEGORY_LABEL: y

SEQUENCE_INPUT: CCTAGCAGGCCAATCTGGGTCACTCAGGGCTTGA
CATEGORY_LABEL: n

SEQUENCE_INPUT: AGAATGAGGATATACGTAGATCAGGGAAGAAAGT
CATEGORY_LABEL: n

SEQUENCE_INPUT: ACTTACGGGTCAACGAGGTTCTAGCACGCGTATA
CATEGORY_LABEL: y

SEQUENCE_INPUT: CGTCCAAGCTCAATGCTAGGTCAGTGAAAGCATT
CATEGORY_LABEL: y

SEQUENCE_INPUT: TTACCAAGGTGAGCTGAGGTAGTTGATCCAACTC
CATEGORY_LABEL: n

SEQUENCE_INPUT: TAGCCTAGGGCAGATCGGGCCAGTATACGCTATA
CATEGORY_LABEL: n

SEQUENCE_INPUT: TAGCCCAGGTCATTGGGCCAGTATAGTACGCATC
CATEGORY_LABEL: y

SEQUENCE_INPUT: ACTATTGGTTGACTTAGGGCAACCGATACGACGC
CATEGORY_LABEL: n

SEQUENCE_INPUT: GCTGCTAGCTCAGGTTGGTCAGCTAACGGGTACG
CATEGORY_LABEL: n

SEQUENCE_INPUT: CGAACTAGGTCAGAACAGGACAGTGACGGATGAT
CATEGORY_LABEL: n
